Every entry's value here was drawn from the RNAGym collection of RNA variant scans (doi:10.1073/pnas.2313332121).

B1: TPR 5TU (parent)
chain: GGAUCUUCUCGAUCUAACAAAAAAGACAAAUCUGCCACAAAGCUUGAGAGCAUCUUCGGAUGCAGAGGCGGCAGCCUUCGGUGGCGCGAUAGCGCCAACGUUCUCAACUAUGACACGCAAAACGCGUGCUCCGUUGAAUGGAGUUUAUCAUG

# Variants of: B1
# ASSAY_OVERVIEW: polymerase ribozyme fitness, log enrichment relative to wild type (log ratio); higher = more active; in vitro selection for triplet polymerase activity
Fewer inactive variants are shown than the library holds.
ENDPOINT: polymerase ribozyme fitness (log ratio)
Reply briefly: the number, and no unit.

Examples with their reported polymerase ribozyme fitness (log ratio) follow.
{"RESIDUE_CHANGE": "A16C G25C", "polymerase ribozyme fitness (log ratio)": -2.46}
{"RESIDUE_CHANGE": "U13G U61A A89U C96U", "polymerase ribozyme fitness (log ratio)": -3.58}
{"RESIDUE_CHANGE": "U6G A122C", "polymerase ribozyme fitness (log ratio)": -0.304}
{"RESIDUE_CHANGE": "G50A G58C C76U C85G G141U", "polymerase ribozyme fitness (log ratio)": -4.1}

For this variant ( G94A U101G ), measured polymerase ribozyme fitness (log ratio) is -0.0834
